- System: IGROV-1
- ASSAY OVERVIEW: NCI tumour cell line growth inhibition, 48 h
Activity calls are given as the source filed them. Rule as the data show it: active = GI50 up to about 1.1 µM and inactive = higher.
Give your call using only these classes: active, inactive

Example entries and their recorded answers appear below.
CCSC(=O)/C=C1\CN(C(=O)OC(C)(C)C)C1C(=O)OC(C)(C)C (stereo not given)
inactive
CC(C(=O)n1c2ccccc2c2ccccc21)N(c1ccccc1)c1ccccc1 (stereo not given)
inactive
CCN(CC)c1ccc2cc(-c3nc4ccccc4n3C)c(=O)oc2c1
active

Kindly review the next compound as well.
Query: Identify the outcome logged in this assay for the compound shown: CN(C)c1ccc(/C=C(\C#N)c2nc(-c3cc4ccccc4oc3=O)cs2)cc1
Reply: inactive

---

I'd appreciate it if you could supply GI50 values for the items below.
- Test system: MDA-MB-231
- ASSAY OVERVIEW: NCI tumour cell line growth inhibition, 48 h
The source made the active and inactive calls. Cut-off read from the data, not from the text of the source: active = GI50 up to about 1.1 µM and inactive = higher.

Example cases with answers are listed next.
Cc1nnc(Nc2ccc(Cl)cc2)o1
> 10 µM (inactive)
CCC[C@@H](O)C[C@@H]1CCC[C@H](C[C@@H](O)CC)N1C
> 100 µM (inactive)
COc1cc(/C=N/n2c(C)n[nH]c2=O)cc(OC)c1OC
57.5 µM (inactive)
COC(C)(C)C(O)C(O)C[C@H](C)C1CC=C2C1(C)CCC1[C@@]3(C)CCC(OC(C)=O)C(C)(C)C3CC(OC3OC(COC(C)=O)C(O)C(O)C3O)[C@@]21C (stereo not given in full)
2.5 µM (inactive)

Now for a further compound.
The compound listed as C#CC(C)(C)OC(=O)C(=[N+]=[N-])C(C)=O shows GI50 equal to > 10 µM (inactive)

---

- Test system: IGROV-1
- ASSAY OVERVIEW: NCI tumour cell line growth inhibition, 48 h
The source made the active and inactive calls. Rule as the data show it: active = GI50 up to about 1.1 µM and inactive = higher.
RECORDED ENDPOINT: GI50

Sample answers from the record:
COC(=O)c1c(OC)cc2cc3c(c(O)c2c1C)C(=O)C1(O)C(=O)C=C(OC)C(OC(=O)CC(C)N)=C1C3=O (centres undefined)
13.6 µM (inactive)
O=C1C2=C(C(=O)c3c(O)ccc(O)c31)[C@@H](O)[C@@H](O)[C@@H](O)C2
2.75 µM (inactive)
CC1=NN(C(=O)CC(=O)Nc2ccccc2C)C(=O)C1/N=N\c1ccc(S(=O)(=O)c2ccc(/N=N/C3C(=O)N(C(=O)CC(=O)Nc4ccccc4C)N=C3C)cc2)cc1 (centres undefined)
68.9 µM (inactive)
CC[C@](O)(C(=O)O)c1cc2n(c(=O)c1CO)Cc1cc3ccccc3nc1-2
0.0652 µM (active)
CS(=O)(=O)OCCN1CCN(C(=O)c2cccc3c(Nc4ccc(S(=O)(=O)N=C(N)N)cc4)c4ccccc4nc23)CC1
> 100 µM (inactive)
N#Cc1c(CC(=O)O)cc(=O)n2c1[nH]c1ccccc12
> 100 µM (inactive)

Dear colleague, could you please provide GI50 for the compounds listed below?
1. CCCS(=O)(=O)O
2. CS/C(=N\C(=S)Nc1ccccc1)Nc1ccccc1
3. CCN(CC)CCNC(=O)c1cc2cc(NC(=O)c3cc4cc([N+](=O)[O-])ccc4[nH]3)ccc2[nH]1

Reply:
1: > 100 µM (inactive); 2: 16.4 µM (inactive); 3: 18.1 µM (inactive)

---

- Tested on: OVCAR-8
- ASSAY OVERVIEW: NCI tumour cell line growth inhibition, 48 h
The source made the active and inactive calls. Rule as the data show it: active = GI50 up to about 1.1 µM and inactive = higher.
Respond only with the outcome that fits, drawn from TRUE = active, FALSE = inactive

Please review the following examples before continuing.
COC(=O)C(Cc1nc2ccc(Cl)cc2nc1O)C(=O)C(=O)Nc1cc(C)ccc1C (stereo not given)
FALSE
CCOC(=O)NC(=O)c1cn(CCN2CCN(C(=O)NCCCCCCNC(=O)N3CCN(CCn4cc(C(=O)NC(=O)OCC)c(=O)[nH]c4=O)CC3)CC2)c(=O)[nH]c1=O
FALSE
C/C(=N\NC(=S)N1CCCC1)c1nc2cccnc2[nH]1
TRUE
CC1CN=C(N(C(=O)Nc2ccccc2)c2ccccc2)S1 (stereo not given)
FALSE
Cc1cc(-c2nc3cccc(F)c3s2)ccc1N
FALSE
COc1ccccc1C(N)c1ccccc1 (stereo not given)
FALSE

Query: # outcome recorded in this test, key = CCN(CC)C(=O)c1cc(OC(C)C)ccc1-c1c(C)cc(OC(C)C)c(OC)c1OC
Reply: FALSE

Query: // param item: CC(=O)/C(=C(/Br)I)c1ccccc1 ; yields the recorded call
Reply: FALSE

Query: Outcome? C=C(C)C1CC=C(C)C(O)([C@@]2(O)C[C@H](C(=C)C)CC=C2C)C1 (stereo not given in full)
Reply: FALSE

Query: Just curious, what result did NC(Cc1c[nH]c2ccccc12)C(=O)O (stereo not given) get here?
Reply: FALSE

Query: Call for entry Nc1ccc(-c2nc3ccc(F)cc3s2)cc1Cl :
Reply: FALSE

Query: Please indicate how the test categorized COC(=O)c1ccc(CCc2cc(O)ccc2O)cc1 .
Reply: FALSE

Query: Given Cn1ncc2cc3c(Nc4ccc(Cl)cc4)cccc3nc21 , state the outcome it received in this test.
Reply: FALSE

Query: What classification did COC(=O)c1cc(C)n(NC(=O)OC(C)(C)C)c1C end up with in this test?
Reply: FALSE

Query: What is the recorded call for this compound in the test? CC(=C(C(=O)O)C(=O)O)c1cc(-c2cccs2)cc(-c2ccc(Cl)cc2)c1O
Reply: FALSE

The values you see were collected from ChEMBL document CHEMBL1201862.
